SYSTEM_TESTED: His6-AspH315–758 (human aspartate/asparagine-β-hydroxylase, AspH) (Homo sapiens)
Construct: N-Terminally His6-tagged human AspH315–758 (His6-AspH315–758) was produced in E. coli BL21 (DE3) cells; made in house; host or cells: E. coli BL21 (DE3), pET-28a(+) vector
Sequence (Q12797 315-758): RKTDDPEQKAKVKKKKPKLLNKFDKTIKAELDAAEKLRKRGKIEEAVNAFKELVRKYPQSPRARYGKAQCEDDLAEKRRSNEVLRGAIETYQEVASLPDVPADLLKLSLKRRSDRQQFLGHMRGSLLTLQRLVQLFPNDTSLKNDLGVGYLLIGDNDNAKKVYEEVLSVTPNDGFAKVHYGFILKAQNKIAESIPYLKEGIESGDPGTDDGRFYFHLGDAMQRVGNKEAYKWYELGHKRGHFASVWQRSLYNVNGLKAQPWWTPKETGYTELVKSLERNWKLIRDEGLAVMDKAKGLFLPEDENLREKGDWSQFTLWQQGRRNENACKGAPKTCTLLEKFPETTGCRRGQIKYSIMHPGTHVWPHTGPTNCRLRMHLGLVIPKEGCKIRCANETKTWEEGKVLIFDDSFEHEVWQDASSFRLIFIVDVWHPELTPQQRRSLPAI
MEASUREMENT_NOTES: SPE-MS AspH inhibition assay (LOPAC screen at fixed 20 μM and IC50 dose-response), hydroxylation of cyclic peptide hFX-CP101–119
Format: biochemical
PROPERTY: Plate 3 (% conversion) (%)

>>> test_result("Cc1[nH]c2ccc(O)cc2c1CCN.O=C(O)/C=C\\C(=O)O [2-Methyl-5-hydroxytryptamine maleate]")
35.71
>>> test_result("C[C@]12CC[C@@H](O)C[C@@H]1CC[C@@H]1[C@@H]2CC[C@]2(C)[C@@H](C(=O)CO)CC[C@@H]12")
42.66
>>> test_result("COc1cc(/C=C/C(=O)N2CCC=CC2=O)cc(OC)c1OC [Piperlongumine]")
35.88
>>> test_result("CC(=O)N1CCN(c2ccc(OCC3COC(Cn4ccnc4)(c4ccc(Cl)cc4Cl)O3)cc2)CC1 (stereo not shown) [Ketoconazole]")
46.43
